- experimental.system: pooled human IgG (human IgG1, 2, 3 and 4)
observation.type: Enzyme Activity Endpoint Assay: scIgG (ng/µL)
One number for each entry, in ng/µL.

protein | observation.type | units.symbol | reading
PRT-437 (protein) MSQTEDSESLQRLRDIEDFQAEKKKQNVVYTKWLDGVDVKDHDFRKIVDGNEAYYATPLLNGRGFYDINKDFNRDSDKCAAAVAANMFHYWLDRNRDNVDRFLRQNPEKHGIIELPDGQLKLSDFLNTYESDDGYRDKSKLFDFISNNFNGPVWTDKLLDNYINGYAYNYKYGRTIEDPTKNTSKINFFKEVFNEKILTNNHSIRNQNEFSVLLSEALYTGKAIGLSYGPAGLRHSLGHIISVWGADLDADGNVVAIYVTDSDDKKLTIGDERVGLKRYKISTDDEGRLRLTAYEETHNTGGQIRGLWTLDTGKQAWADYFDKTEQTGTDQAEQ | Enzyme Activity Endpoint Assay: scIgG | ng/µL | 263

We now examine a further protein.
Incoming: Value lookup for Enzyme Activity Endpoint Assay: scIgG; key = PRT-253 (protein) MVTSVWTKGVTPPTNFTYGEDVLHAPYVANQGWYDITKTFNGKDDLLCGAATAGNMLHWWFDQNKEQIENYLKKHPEKQKINFNGEQMFDVKEAIDTKDSQLDSKLFEYFLEKAFPNLSTKHLGVFPDHVIDMFINGYRLSLLNHGPTPVKRGSKDPRGGIFDAVFTRGDQSKLLTNRHDFKEKTLKEISDLIKQELTEGKALGISHTYANVRINHVINLWGADFDAEGNLEAIYVTDSDSNKSIGMKKYFVGVNSDGKVAISAKEIEEDNIGAQVLGLFTLSTGQDIWNQTN
Outgoing: 0

Hey, just so you know, these numbers are from patent US20250027068.
